Provide the recorded glycan array binding signal (z-score) for the entries that follow.
target: Gal(b1-3)GalNAc(b1-3)Gal(a1-4)Gal(b1-4)Glc; test: glycan array binding signal (z-score within array); higher = stronger binding; settings: glycan notation: IUPAC condensed, linker removed
About 410 targets per protein were measured; listed, in parts, are those with the strongest signals and a random draw of the rest.

glycan array binding signal (z-score) in this record for EUL D1A first (Oryza sativa) (protein) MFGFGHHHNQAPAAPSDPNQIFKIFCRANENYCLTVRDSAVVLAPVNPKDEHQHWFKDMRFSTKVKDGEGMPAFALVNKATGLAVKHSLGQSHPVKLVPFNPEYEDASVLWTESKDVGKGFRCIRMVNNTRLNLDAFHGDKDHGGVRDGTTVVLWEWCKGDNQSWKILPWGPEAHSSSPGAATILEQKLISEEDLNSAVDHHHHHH : -0.207

glycan array binding signal (z-score) in this record for OS9-MRH (Homo sapiens), Q13438 (protein) IPELLSPMRDAPCLLKTKDWWTYEFCYGRHIQQYHMEDSEIKGEVLYLGYYQSAFDWDDETAKASKQHRLKRYHSQTYGNGSKCDLNGRPREAEVRFLCDEGAGISGDYIDRVDEPLSCSYVLTIRTPRLCPHPLLRPPPSAAPQAI : 2.47

glycan array binding signal (z-score) in this record for SUN4 (Saccharomyces cerevisiae), P53616 (protein) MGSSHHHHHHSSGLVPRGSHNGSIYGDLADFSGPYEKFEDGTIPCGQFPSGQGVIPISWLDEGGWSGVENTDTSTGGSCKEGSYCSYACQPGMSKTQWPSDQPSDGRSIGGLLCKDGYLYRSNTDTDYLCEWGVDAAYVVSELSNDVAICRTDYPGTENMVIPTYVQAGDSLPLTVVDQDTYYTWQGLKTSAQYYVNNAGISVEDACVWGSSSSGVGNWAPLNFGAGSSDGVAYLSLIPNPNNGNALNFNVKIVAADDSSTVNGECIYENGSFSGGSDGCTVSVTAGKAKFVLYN : 0.295

Sourced from the supplement of paper PMC8728848
